target: T1, Human CD27 ECD, monomeric soluble (construct limits not stated) (human, UniProt P26842 20-191); test: Biacore SPR, purified mAb
T1 construct: extracellular domain; target of the Biacore assays; also called monomeric soluble CD27; CD27-His
T1 sequence (P26842 20-191): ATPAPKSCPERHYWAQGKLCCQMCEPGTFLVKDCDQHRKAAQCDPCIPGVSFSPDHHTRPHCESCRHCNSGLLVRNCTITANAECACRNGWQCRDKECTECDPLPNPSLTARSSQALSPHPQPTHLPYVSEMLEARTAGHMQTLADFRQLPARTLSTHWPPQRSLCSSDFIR
Item-by-item account of koff

{"Binder": "M695 (antibody, V domains shown, also called single-gene DNA ID 695) VH: QVQLVESGGGLVKPGGSLRLSCAASGFTFSSYSMSWIRQAPGKGLEWVSYIDAGGGFTIYPDSVKGRFTISRDNAKNSLYLQMNSLRAEDTAVYYCARHRGNPFDYWGQGTLVTVSS VL: DIQMTQSPSSLSASVGDRVTITCRASKSVSEGRWSFMHWYQQKPGKAPKLLIYVASRLESGVPSRFSGSGSGTDFTFTISSLQPEDIATYYCQHSRELPWTFGQGTKVEIK", "koff": "0.00017 s⁻¹"}
{"Binder": "M707 (antibody, V domains shown, also called single-gene DNA ID 707) VH: EVQLLESGGGLVQPGGSLRLSCAASGFTFSSYTMSWVRQAPGKGLEWVSAIDHGGGQTLYPDSVKGRFTISRDNSKNTLYLQMNSLRAEDTAVYYCARHRGNPFDYWGQGTLVTVSS VL: DIQMTQSPSSLSASVGDRVTITCRASKSVSHVRWSFMHWYQQKPGKAPKLLIYLASNLESGVPSRFSGSGSGTDFTLTISSLQPEDFATYYCQHSRELPWTFGQGTKVEIK", "koff": "0.000124 s⁻¹"}
{"Binder": "M694 (antibody, V domains shown, also called single-gene DNA ID 694) VH: QVQLVESGGGLVKPGGSLRLSCAASGFTFSSYGMSWIRQAPGKGLEWVSYIDEGGGQTIYPDSVKGRFTISRDNAKNSLYLQMNSLRAEDTAVYYCARHRGNPFDYWGQGTLVTVSS VL: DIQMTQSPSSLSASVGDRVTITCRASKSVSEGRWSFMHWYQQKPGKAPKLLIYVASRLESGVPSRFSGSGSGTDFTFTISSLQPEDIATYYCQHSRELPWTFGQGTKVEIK", "koff": "7.6e-05 s⁻¹"}
